Data provenance is patent US20210315893A1.

Biological target: human GPCR sphingosine 1-phosphate receptor 5 (Homo sapiens)
Construct: host or cells: CHO
Sequence (Q9H228 whole entry): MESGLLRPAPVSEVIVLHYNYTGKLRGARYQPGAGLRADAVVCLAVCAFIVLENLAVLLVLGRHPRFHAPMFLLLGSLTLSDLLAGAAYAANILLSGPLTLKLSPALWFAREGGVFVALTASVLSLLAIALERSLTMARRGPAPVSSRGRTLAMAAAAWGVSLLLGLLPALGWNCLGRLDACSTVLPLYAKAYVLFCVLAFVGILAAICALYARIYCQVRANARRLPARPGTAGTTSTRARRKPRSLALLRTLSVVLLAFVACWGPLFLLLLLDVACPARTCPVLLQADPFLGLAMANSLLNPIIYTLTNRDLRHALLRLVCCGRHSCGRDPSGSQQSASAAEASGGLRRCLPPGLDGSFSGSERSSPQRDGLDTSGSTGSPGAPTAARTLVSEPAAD
Experiment: S1PR5 selectivity Ca2+ flux assay (antagonist readout)
Type: cell-based
Conditions: CHO cells overexpressing human S1PR5 and Gq, agonist at EC80 (20 nM), read-out: S1P5 EC50 (nM), S1P5 antagonist EC50
Assign EC50 to each entry below.
A number alone suffices; assume nM.

[Q] # value lookup — system human GPCR sphingosine 1-phosphate receptor 5 (Homo sapiens), readout EC50, item COCCOc1cc2[nH]c(Cc3nn(CC(=O)N4CCOCC4)c(=O)c4ccccc34)nc2cc1Cl
[A] 19800

[Q] Item: CC(C(=O)O)n1nc(Cn2cc3cc(OCC(F)F)c(Cl)cc3n2)c2ccccc2c1=O (stereo not drawn)
[A] 19800

[Q] Item: N#Cc1cc2[nH]c(Cc3nn(CC(=O)N4CCC(O)(C5CC5)C4)c(=O)c4ccccc34)nc2cc1OCC(F)F (stereo not drawn)
[A] 19800

[Q] Item: O=C(O)Cn1nc(Cc2nc3cc(Cl)c(OCC(F)F)cc3[nH]2)c2ccccc2c1=O
[A] 19800

[Q] Item: CC(C(=O)O)n1nc(Cc2nc3cc(OCC4CC4)c(Cl)cc3[nH]2)c2ccccc2c1=O (stereo not drawn)
[A] 19800

[Q] Item: N#Cc1cc2nn(Cc3nn(CC(=O)NC4CCCC4)c(=O)c4ccccc34)cc2cc1OCC(F)F
[A] 19800

[Q] Item: O=C(O)c1nn(Cc2cn3cc(OCC4CC4)c(Cl)cc3n2)c2ccccc2c1=O
[A] 19800

[Q] Item: N#Cc1cc2nn(Cc3nn(CC(=O)O)c(=O)c4ccccc34)cc2cc1OCC(F)F
[A] 19800

[Q] Item: N#Cc1cc2[nH]c(Cc3nn(CC4CCCN4CC(=O)O)c(=O)c4ccccc34)nc2cc1OCC(F)F (stereo not drawn)
[A] 19800

[Q] Item: N#Cc1cc2nc(Cc3nn(CC(=O)N4CCOCC4)c(=O)c4c3CCCC4)[nH]c2cc1OCC(F)F
[A] 19800

[Q] Item: O=C(Cn1nc(Cc2nc3cc(Cl)c(OCC4CC4)c(F)c3[nH]2)c2ccccc2c1=O)N1CCOCC1
[A] 19800

[Q] Item: NC(=O)c1ccc2c(=O)n(CC(=O)N3CCOCC3)nc(Cc3nc4cc(OCC(F)F)c(Cl)cc4[nH]3)c2c1
[A] 19800

[Q] Item: CN(C)C1CCN(C(=O)Cn2nc(Cc3nc4cc(C#N)c(OCC(F)F)cc4[nH]3)c3c(c2=O)CCCC3)C1 (stereo not drawn)
[A] 19800

[Q] Item: N#Cc1cc2[nH]c(Cn3nc(CC(=O)N4C[C@H](O)[C@@H](O)C4)c(=O)c4ccccc43)nc2cc1OCC1CC1
[A] 19800

[Q] Item: N#Cc1cc2[nH]c(Cn3cc(C(=O)O)c(=O)c4ccccc43)nc2cc1OCC(F)F
[A] 19800

---

Target: S1PR2 (Homo sapiens)
Construct: expressed in transfected cells
Sequence (O95136 whole entry): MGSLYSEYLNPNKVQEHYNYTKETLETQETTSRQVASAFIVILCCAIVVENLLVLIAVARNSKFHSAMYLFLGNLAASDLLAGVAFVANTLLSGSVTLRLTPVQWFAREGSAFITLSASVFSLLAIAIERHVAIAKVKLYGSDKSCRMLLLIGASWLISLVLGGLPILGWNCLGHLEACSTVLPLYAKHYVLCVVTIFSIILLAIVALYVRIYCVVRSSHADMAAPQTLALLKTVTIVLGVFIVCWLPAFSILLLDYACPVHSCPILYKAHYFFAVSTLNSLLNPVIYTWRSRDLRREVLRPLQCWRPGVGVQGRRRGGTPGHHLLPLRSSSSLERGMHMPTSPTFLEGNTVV
Test: S1PR2 binding assay (competition with radioactively labeled S1P, SpA)
Conditions: membranes from stable cell line over expressing S1PR2, SpA beads; read-out: S1P2 EC50 (nM), S1PR2 binding EC50
readoutName: EC50
Phrase the answer as number then unit, nothing more needed.

[Q] For the molecule shown here, CC1(Cn2nc(Cc3nc4cc(Cl)c(OC(F)(F)F)cc4[nH]3)c3ccccc3c2=O)COC1 , give the reported EC50.
[A] 100000 nM

[Q] Item: CCOc1cc2[nH]n(Cc3nn(CC(=O)O)c(=O)c4ccccc34)c(=O)c2cc1Cl
[A] 1970 nM

[Q] Item: O=C(O)Cn1nc(Cc2nc3cc(Cl)c(OCC4CC4)cc3[nH]2)c2c(c1=O)CCCC2
[A] 33.2 nM

[Q] Item: O=c1c2ccccc2c(Cc2nc3cc(Cl)c(OC(F)(F)F)cc3[nH]2)nn1CC1CCNC1 (stereo not drawn)
[A] 457 nM

[Q] Item: COCCOc1cc2nc(Cc3nn(C4CCNC4)c(=O)c4ccccc34)[nH]c2cc1C#N (stereo not drawn)
[A] 1030 nM

[Q] Item: COCCOc1cc2nc(Cc3nn(C4CCNC4)c(=O)c4ccccc34)[nH]c2cc1Cl (stereo not drawn)
[A] 64.9 nM

[Q] Item: CN(C)CC(C(=O)O)n1nc(Cc2nc3cc(OCC(F)F)c(C#N)cc3[nH]2)c2ccccc2c1=O (stereo not drawn)
[A] 5330 nM

[Q] Item: CCOc1cc2nc(Cc3nn(CC(=O)O)c(=O)c4c(C)cccc34)[nH]c2cc1Cl
[A] 241 nM

[Q] Item: CS(=O)(=O)C1CCN(C(=O)Cn2nc(Cc3nc4cc(OCC(F)F)c(C#N)cc4[nH]3)c3ccccc3c2=O)C1 (stereo not drawn)
[A] 365 nM

[Q] Item: Cc1cccc2c1c(=O)c(CC(=O)O)nn2Cc1cn2cc(OCC3CC3)c(Cl)cc2n1
[A] 30 nM

[Q] Item: O=c1c2ccccc2c(Cc2nc3cc(Cl)c(OC(F)(F)F)cc3[nH]2)nn1C1CCCC1
[A] 8450 nM

[Q] Item: N#Cc1cc2[nH]c(Cc3nn(CC(=O)N4CCC(O)C(F)(F)C4)c(=O)c4ccccc34)nc2cc1OCC(F)F (stereo not drawn)
[A] 65.6 nM

[Q] Item: O=C(Cn1nc(Cc2nc3cc(OC(F)(F)F)c(Cl)cc3[nH]2)c2ccccc2c1=O)NC1CCS(=O)(=O)CC1
[A] 70.6 nM

[Q] Item: CN(CC(F)F)C(=O)Cn1nc(Cc2nc3cc(C#N)c(OCC(F)F)cc3[nH]2)c2ccccc2c1=O
[A] 80.3 nM

[Q] Item: O=C(Cn1cc(Cc2nc3cc(OCC(F)F)c(Cl)cc3[nH]2)c2ccccc2c1=O)N1CCOCC1
[A] 375 nM
